Reported TGI values are given for each entry in this list.
# Test system: RXF 393 renal
# test: NCI tumour cell line growth inhibition, 48 h

Record excerpt, results attached:
[[record]]
molecule = "O=[N+]([O-])c1ccc(Cl)cc1C1ON=C(c2ccccc2)N1C12CC3CC(CC(C3)C1)C2 (stereo not given)"
reading = "> 100 µM"

[[record]]
molecule = "O=S(=O)(O)CCS"
reading = "> 100 µM"

[[record]]
molecule = "C#CC(O)/C=C/CCCCCCC#CC/C=C\\CC#CCCCCCC/C=C/C(O)C#C (stereo not given)"
reading = "28.3 µM"


Ask: Enter reported TGI observed with RXF 393 renal for "CC(=O)O[C@H]1[C@@H]2[C@@H]3[C@@H](C[C@H]1C)[C@@H](C)CO[C@@]1(C)CC/C=C(/C)C[C@@H]2O[C@@H]31"
Result: > 100 µM

Ask: Enter reported TGI observed with RXF 393 renal for "Cc1ccc(S(=O)(=O)CNC(=S)CCCC(=S)NCS(=O)(=O)c2ccc(C)cc2)cc1"
Result: > 100 µM

Ask: Enter reported TGI observed with RXF 393 renal for "CCCCCCCCCCCCCC/C(C(=O)OC)=C(/O)C(=O)OCC"
Result: > 100 µM

Ask: Enter reported TGI observed with RXF 393 renal for "O=C(CC/C(C/C(=N/O)c1ccc(F)cc1)=N/O)N(Cc1ccccc1)Cc1ccccc1"
Result: > 100 µM

Ask: Enter reported TGI observed with RXF 393 renal for "COc1cccc(NCC(=O)Nn2c(-c3ccccc3)nc3ccccc3c2=O)c1"
Result: > 100 µM

Ask: Enter reported TGI observed with RXF 393 renal for "C/C=C(/C)C(=O)O[C@@H]1c2c(C)coc2C[C@H]2CC[C@H](O)[C@H](C)[C@]21C"
Result: 78.2 µM

Ask: Enter reported TGI observed with RXF 393 renal for "N[C@@H]1c2c(Br)sc(Br)c2[C@H](O)[C@@H]1O"
Result: > 100 µM

----------
# System: LOX IMVI melanoma
# test: NCI tumour cell line growth inhibition, 48 h
Reported GI50 values are given for each entry in this list.

[[record]]
molecule = "Nc1c(C(=O)c2cccc(OCCN3CCOCC3)c2)cnn1-c1ccc(F)cc1"
readout = "GI50"
reading = "> 25000 nM"

[[record]]
molecule = "Cc1cc(S(=O)(=O)Nc2nc3ccsc3c(=O)n2Cc2ccco2)c(S)cc1Cl"
readout = "GI50"
reading = "> 100000 nM"

[[record]]
molecule = "O=C(Nc1cnn2ccc(N3CCC[C@@H]3c3cc(F)ccc3F)nc12)N1CC[C@H](O)C1"
readout = "GI50"
reading = "> 100000 nM"

[[record]]
molecule = "N#CC1C(=N)Cc2ccccc2-c2ccccc21 (stereo unspecified)"
readout = "GI50"
reading = "6260 nM"

[[record]]
molecule = "C#CCN1CCN(C(=S)N/N=C(\\C)c2ccccn2)CC1"
readout = "GI50"
reading = "1600 nM"


Ask: Data request, read-out GI50, for "N#C/C(=C\c1ccc(Br)cc1)n1nnc2cccc(F)c21"
Result: 614 nM

Ask: Data request, read-out GI50, for "O=C1c2cccnc2-c2nc(/C=C/c3ccccc3)cc3c2c1nc1ccccc13"
Result: 2760 nM

----------
# System: IGROV1 ovarian
# test: NCI tumour cell line growth inhibition, 48 h
readout: TGI

Record excerpt, results attached:
[[record]]
compound = "CC12O[C@H](c3ccccc3)[C@H](c3ccccc3)N1C(=O)C1(C(=O)OCc3ccccc3)CC12 (stereo partly specified)"
readout = "TGI"
reading = "> 100 µM"

[[record]]
compound = "CCCCCCCCCCCCCCCCCCNc1ccn(C2OC(COP(=O)(O)O)C(O)C2O)c(=O)n1 (stereo unspecified)"
readout = "TGI"
reading = "> 100 µM"

[[record]]
compound = "CCOC(=O)CCC(NC(=O)c1ccc(CNc2nc3cc(N)cc(N)c3nc2-c2ccccc2)cc1)C(=O)OCC (stereo unspecified)"
readout = "TGI"
reading = "> 100 µM"

[[record]]
compound = "NC(=O)N/N=C(\\Cc1nc2ccc(C(=O)c3ccccc3)cc2[nH]c1=O)C(=O)Nc1ccc(Br)cc1"
readout = "TGI"
reading = "> 100 µM"

[[record]]
compound = "CS(=O)(=O)N1CCN(Cc2cc3nc(-c4cccc5[nH]ncc45)nc(N4CCOCC4)c3s2)CC1 (tested in a mixture with another compound)"
readout = "TGI"
reading = "0.188 µM"


Ask: Data request, read-out TGI, for "O=C1C=CC(=O)C1(Br)Br"
Result: 13.7 µM

Ask: Data request, read-out TGI, for "O=C(O)c1c(-c2c3ccc(=O)cc-3oc3cc(O)ccc23)cc2ccccc2c1-c1ccccc1"
Result: > 100 µM

Ask: Data request, read-out TGI, for "NC(=O)c1n[nH]n(-c2ccccc2)c1=O"
Result: > 100 µM

Ask: Data request, read-out TGI, for "CN(C)c1ccc(/C=C/c2sc3ccc4ccccc4c3[n+]2C)cc1"
Result: 1.66 µM

Ask: Data request, read-out TGI, for CN1N=C2c3ccccc3CC[C@H]2C1c1ccccc1 (stereo partly specified)
Result: > 100 µM

Ask: Data request, read-out TGI, for "C(CCc1nnc2c(n1)CCCC2)Cc1nnc2c(n1)CCCC2"
Result: > 100 µM

----------
Reported TGI values are given for each entry in this list.
# Tested on: SF-268 CNS
# test: NCI tumour cell line growth inhibition, 48 h

Record excerpt, results attached:
[[record]]
compound = "CCc1cccc(CC)c1NC(=S)NC(=O)c1ccc(Br)cc1"
readout = "TGI"
reading = "> 100 µM"

[[record]]
compound = "CC1=C(C(=O)OCCO[N+](=O)[O-])C(c2ccccc2C(F)(F)F)C(C(=O)OC(C)C)=C(C)N1 (centres undefined)"
readout = "TGI"
reading = "47.9 µM"

[[record]]
compound = "O=C1c2cccnc2-c2nc(/C=C/c3ccccc3)cc3c2c1nc1ccccc13"
readout = "TGI"
reading = "> 21.2 µM"

[[record]]
compound = "COc1c2ccccc2c(O)c2c(=O)c(C(=O)O)cn(C)c12"
readout = "TGI"
reading = "> 100 µM"

[[record]]
compound = "O=C1CC2CCCCC2=C1O (centres undefined)"
readout = "TGI"
reading = "> 100 µM"


Ask: Enter reported TGI observed with SF-268 CNS for "CCOC(=O)/C=C1\SC(=Nc2ccc(C#N)cc2)N(CCN2C(=O)/C(=C/C(=O)OCC)SC2=Nc2ccc(C#N)cc2)C1=O"
Result: 16.1 µM

Ask: Enter reported TGI observed with SF-268 CNS for COC(=O)C(NC(=O)CNC(=O)CSc1nnc(COc2ccc(Cl)cc2)n1-c1ccccc1)C(C)C (centres undefined)
Result: 42.7 µM

Ask: Enter reported TGI observed with SF-268 CNS for NC(=O)c1csc(C2C=CC(CO)O2)n1 (centres undefined)
Result: > 100 µM

Ask: Enter reported TGI observed with SF-268 CNS for O=C(CCCCCCCCC(=O)NN1C(=O)/C(=C\c2ccc(O)c(O)c2)SC1c1c(O)ccc2ccccc12)NN1C(=O)C(=Cc2ccc(O)c(O)c2)SC1c1c(O)ccc2ccccc12 (centres undefined)
Result: > 100 µM

----------
# Tested on: RXF 393 renal
# test: NCI tumour cell line growth inhibition, 48 h
Reported TGI values are given for each entry in this list.
Answer in µM, number only, no unit symbol.

[[record]]
chem_smiles = "CCN1/C(=C/c2ccc3ccccc3[n+]2CC)C=Cc2ccccc21"
target = "RXF 393 renal"
reading = 12.8


Ask: Data request, read-out TGI, for "CN(C)c1ccc(/C=C2\CNC/C(=C\c3ccc(N(C)C)cc3)C2=O)cc1"
Result: 44

----------
# Tested on: SK-MEL-5 melanoma
# test: NCI tumour cell line growth inhibition, 48 h
readout: TGI

[[record]]
compound = "Cc1ccc(-c2ccc(Nc3c4ccccc4nc4ccccc34)cc2)cn1"
reading = "16.5 µM"

[[record]]
compound = "Cc1ccc(/C=C2\\NC(=S)N(CN3CCOCC3)C2=O)cc1"
reading = "> 100 µM"

[[record]]
compound = "O=[N+]([O-])c1ccc(/C=C/c2ccc(N=Nc3ccc(/C=C/c4ccc([N+](=O)[O-])cc4S(=O)(=O)O)c(S(=O)(=O)O)c3)cc2S(=O)(=O)O)c(S(=O)(=O)O)c1"
reading = "> 100 µM"

[[record]]
compound = "N#CCCC(CC#N)N1CCN(CCO)CC1 (stereo not given)"
reading = "> 100 µM"


Now look at this entry.
Ask: Data request, read-out TGI, for "Nc1ccn([C@H]2C[C@@H](O)[C@@H](CO)S2)c(=O)n1"
Result: > 100 µM

----------
# Test system: MDA-MB-435
// allowed return values: active, inactive

[[record]]
compound = "COc1ccc(-c2cnc(-c3ccc(F)cc3)[nH]2)cc1"
category_label = "inactive"

[[record]]
compound = "Nc1nc2c(c3ncccc13)C(c1cccc(Cl)c1)Cc1ncccc1-2 (stereo unspecified)"
category_label = "active"

[[record]]
compound = "Nc1ccn([C@H]2C[C@@H](O)[C@@H](CO)S2)c(=O)n1"
category_label = "inactive"


Ask: Check the results log: what was the call for "COc1cc2c3c(n(CCN)c(=O)c2cc1OC)-c1cc2c(cc1C3=O)OCO2" ?
Result: inactive

Ask: Check the results log: what was the call for "C=C(CNCCc1ccc(O)cc1)[C@@H]1CC[C@]2(CO)CC[C@]3(C)[C@H](CC[C@@H]4[C@@]5(C)CCC(=O)C(C)(C)[C@@H]5CC[C@]43C)[C@@H]12" ?
Result: inactive

Ask: Check the results log: what was the call for CC(CN)[C@@H]1CC[C@]2(CO)CC[C@]3(C)[C@H](CC[C@@H]4[C@@]5(C)CCC(NCCO)C(C)(C)[C@@H]5CC[C@]43C)[C@@H]12 (stereo partly specified) ?
Result: inactive
